// reported pEC50 for each item listed
biological target: T1, His-tagged human TSLP antigen (huTSLP-his) (human); assay: ELISA, coated huTSLP-his;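 further: binding of antibodies to plate-bound TSLP read as absorbance at 450 nm after TMB colour development, EC50 derived from binding curves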
T1 construct: Secreted from HEK293E and purified on nickel; whole entry named; also called Human TSLP-his
Interpret pEC50 as the negative base-10 log of the concentration measured in mol/L.

hu119-28 (antibody, human IgG1, kappa, V domains shown, IgG1-YTE, kappa; also called hu119VH3 + hu119VL2-N31S) VH: EVQLVQSGAEVKKPGSSVKVSCKASGFTFSTYNMHWVKHAPGQGLEWIGAIYPGNGETSYNQKFKDRATLTVDKSTSTAYMELSSLRSEDTAVYYCAREDDYGEGYFDVWGQGTTVTVSS VL: DIVLTQSPDSLAVSLGERATINCRASESVDSSGLSFMHWYQQKPGQPPKLLIYRASNLGSGVPDRFSGSGSGTDFTLTISSLQAEDVAVYYCQQINTDPLTFGQGTKLEIKR	9.58

Turning to the following binder.
Request: Give recorded pEC50. Ch3 (antibody, human IgG1, kappa, V domains shown, murine variable regions on human IgG1-YTE / kappa; also called chimeric antibody corresponding to mab3) VH: EVQLQQSGPVLVKPGASVKMSCKASGYTFTDDYMNWVKQSHGKSLEWIGIISPYNGGTSYNQKFKGKATLTVDKSSSTAYMELNSLTSEDSAVYYCAREDYDYDGYAMDHWGQGTSVTVSS VL: QIVLSQSPAILSASPGEKVTMTCRASSSVSYMHWYQQKPGSSPKPWIYATSNLASGVPARFSGSGSGTSYSLTISRVEAEDAATYYCQQWSSNRTFGGGTKLEIKR
Response: 9.31
